Listing of recorded pA2 by entry.
Target: Adrenergic receptor alpha-1 (Oryctolagus cuniculus)
Test: Antagonistic activity at Alpha-1 adrenergic receptor was performed on ring segments of rabbit thoracic aorta contracted by noradrenaline.
The response must contain the number and no unit.

Please review the following examples before continuing.
# get_value(readout='pA2', item= COc1ccccc1N1CCN(CCCCNC(=O)c2cccn2C)CC1.O=C(O)/C=C/C(=O)O )
7.72

Which pA2 reading was recorded for the compound COc1ccccc1N1CCN(CCCCNC(=O)C2CC3C=CC2C3)CC1 (stereo unspecified) ?
8.53

For the next question, use this compound.
Param item = COc1ccccc1N1CCN(CCCCNC(=O)c2cccs2)CC1 ; retrieve measured pA2.
9.16

###

Target: UniProt P19327
Sequence (P19327 whole entry): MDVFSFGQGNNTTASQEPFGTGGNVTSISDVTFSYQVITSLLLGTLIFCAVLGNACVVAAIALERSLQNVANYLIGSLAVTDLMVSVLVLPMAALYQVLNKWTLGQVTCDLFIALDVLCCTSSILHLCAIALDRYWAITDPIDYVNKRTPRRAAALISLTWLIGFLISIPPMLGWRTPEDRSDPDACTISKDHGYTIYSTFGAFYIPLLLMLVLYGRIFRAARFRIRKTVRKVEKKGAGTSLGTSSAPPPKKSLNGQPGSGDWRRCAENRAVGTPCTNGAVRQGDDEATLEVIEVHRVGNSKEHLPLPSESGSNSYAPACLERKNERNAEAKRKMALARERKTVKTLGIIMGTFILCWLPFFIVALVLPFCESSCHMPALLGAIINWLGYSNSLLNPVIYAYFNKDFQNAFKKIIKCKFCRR
As shown below, each of these compounds has a reported Ki value.
// return numeric value only (unit: nM, not printed)

Lab note: need Ki with UniProt P19327 for entry COc1ccccc1N1CCN(CCCCNC(=O)c2sccc2Cl)CC1 , please look it up.
3.34

Recorded Ki for COc1ccccc1N1CCN(CCNC(=O)C2CC3CCC2C3)CC1 (stereo unspecified) with UniProt P19327, please?
0.12

Notebook: pull reported Ki for UniProt P19327, entry COc1ccccc1N1CCN(CCCCNC(=O)c2sccc2OC)CC1
32.1

UniProt P19327 / Ki / COc1ccccc1N1CCN(CCCCNC(=O)C2CCCC2)CC1 : value?
1.88

Identify the measured Ki of COc1ccccc1N1CCN(CCCNC(=O)c2ccc[nH]2)CC1 for UniProt P19327.
201

Observed Ki on UniProt P19327 for COc1ccccc1N1CCN(CCNC(=O)C2CCC3CCCC32)CC1 (stereo unspecified) , please.
0.24

Record lookup: for UniProt P19327, what Ki belongs to COc1ccccc1N1CCN(CCNC(=O)Cc2ccsc2)CC1 ?
32.3

Notebook: pull reported Ki for UniProt P19327, entry COc1ccccc1N1CCN(CCCCNC(=O)c2cccnc2)CC1
25.2

Hi! What's the reported Ki for COc1ccccc1N1CCN(CCCCNC(=O)c2ccc[nH]2)CC1 on UniProt P19327?
12.5

Enter reported Ki observed with UniProt P19327 for COc1ccccc1N1CCN(CCNC(=O)c2ccc(C)s2)CC1
2.29

# ---- query compound ----
Write down the reported Ki of COc1ccccc1N1CCN(CCNC(=O)C2CC3C=CC2C3)CC1 (stereo unspecified) , test system: UniProt P19327.
0.27
